# System: Saccharomyces cerevisiae
# RUN_DESCRIPTION: protein stability index of tFT-peptide fusion (C-terminal peptide) (PSI (0-1 scale)); higher = more stable (slower turnover)
# TEST_SETTINGS: genetic background: das1 deletion; temperature: 30 C
MEASUREMENT_LABEL: protein stability index

POLYMER_SEQUENCE: QQLQSPTAPPTE [COX14 C-terminal 12 aa]
MEASUREMENT_LABEL: protein stability index
RESULT_NUMBER: 0.727

POLYMER_SEQUENCE: DDRPIYKRFFSS [HXT9 C-terminal 12 aa]
MEASUREMENT_LABEL: protein stability index
RESULT_NUMBER: 0.712

POLYMER_SEQUENCE: ILKKNPDYREEE [RPN1 C-terminal 12 aa]
MEASUREMENT_LABEL: protein stability index
RESULT_NUMBER: 0.696

POLYMER_SEQUENCE: MNKKHHKPIPFD [RRD2 C-terminal 12 aa]
MEASUREMENT_LABEL: protein stability index
RESULT_NUMBER: 0.762

POLYMER_SEQUENCE: DDDEEDEIVEVA [HGH1 C-terminal 12 aa]
MEASUREMENT_LABEL: protein stability index
RESULT_NUMBER: 0.698

POLYMER_SEQUENCE: VLTAGVNSVAIK [RPN11 C-terminal 12 aa]
MEASUREMENT_LABEL: protein stability index
RESULT_NUMBER: 0.665

POLYMER_SEQUENCE: EQNLEALAKSFF [BEM4 C-terminal 12 aa]
MEASUREMENT_LABEL: protein stability index
RESULT_NUMBER: 0.734

POLYMER_SEQUENCE: SKSGSGGCCIIS [RAS2 C-terminal 12 aa]
MEASUREMENT_LABEL: protein stability index
RESULT_NUMBER: 0.736

POLYMER_SEQUENCE: ETIAEEMDSVHT [YAL064W-B C-terminal 12 aa]
MEASUREMENT_LABEL: protein stability index
RESULT_NUMBER: 0.682

POLYMER_SEQUENCE: STKILETSANYL [RVB1 C-terminal 12 aa]
MEASUREMENT_LABEL: protein stability index
RESULT_NUMBER: 0.69

POLYMER_SEQUENCE: KVESSDCSFEFA [VID24 C-terminal 12 aa]
MEASUREMENT_LABEL: protein stability index
RESULT_NUMBER: 0.699

POLYMER_SEQUENCE: SLLLEKLDPEIE [UBX5 C-terminal 12 aa]
MEASUREMENT_LABEL: protein stability index
RESULT_NUMBER: 0.731

POLYMER_SEQUENCE: DSATLVNVHIKR [SPR3 C-terminal 12 aa]
MEASUREMENT_LABEL: protein stability index
RESULT_NUMBER: 0.706

POLYMER_SEQUENCE: HLENELKDQQEL [ATM1 C-terminal 12 aa]
MEASUREMENT_LABEL: protein stability index
RESULT_NUMBER: 0.718

POLYMER_SEQUENCE: KHDVLSTLPHNN [SKO1 C-terminal 12 aa]
MEASUREMENT_LABEL: protein stability index
RESULT_NUMBER: 0.704

POLYMER_SEQUENCE: KPPKNKYKVVRR [SEC65 C-terminal 12 aa]
MEASUREMENT_LABEL: protein stability index
RESULT_NUMBER: 0.714

POLYMER_SEQUENCE: LEAATNFLLDSA [EDE1 C-terminal 12 aa]
MEASUREMENT_LABEL: protein stability index
RESULT_NUMBER: 0.722

POLYMER_SEQUENCE: YISKAGSYEVRY [APM4 C-terminal 12 aa]
MEASUREMENT_LABEL: protein stability index
RESULT_NUMBER: 0.683

POLYMER_SEQUENCE: DDGDSDSWDTNW [CEX1 C-terminal 12 aa]
MEASUREMENT_LABEL: protein stability index
RESULT_NUMBER: 0.701

POLYMER_SEQUENCE: DTVPPEKLMKFV [RAX2 C-terminal 12 aa]
MEASUREMENT_LABEL: protein stability index
RESULT_NUMBER: 0.711

POLYMER_SEQUENCE: KYILAWLRKVLL [YFL012W-A C-terminal 12 aa]
MEASUREMENT_LABEL: protein stability index
RESULT_NUMBER: 0.651

POLYMER_SEQUENCE: LKTIAAVFSVRV [YJR114W C-terminal 12 aa]
MEASUREMENT_LABEL: protein stability index
RESULT_NUMBER: 0.612

POLYMER_SEQUENCE: CFPDDIFEYAVE [GLG1 C-terminal 12 aa]
MEASUREMENT_LABEL: protein stability index
RESULT_NUMBER: 0.768

POLYMER_SEQUENCE: WNLQTLAADDAF [RPB11 C-terminal 12 aa]
MEASUREMENT_LABEL: protein stability index
RESULT_NUMBER: 0.765

POLYMER_SEQUENCE: LLLSFYFDFYPF [YEL050W-A C-terminal 12 aa]
MEASUREMENT_LABEL: protein stability index
RESULT_NUMBER: 0.515

###

# System: Saccharomyces cerevisiae
# RUN_DESCRIPTION: protein stability index of tFT-peptide fusion (C-terminal peptide) (PSI (0-1 scale)); higher = more stable (slower turnover)
# TEST_SETTINGS: genetic background: wild type; temperature: 30 C

POLYMER_SEQUENCE: SVLQQTSKEPFW [HOS4 C-terminal 12 aa]
protein stability index: 0.697
--
POLYMER_SEQUENCE: RQTRNQTKELDS [DPB11 C-terminal 12 aa]
protein stability index: 0.691
--
POLYMER_SEQUENCE: STIQTTSVDPTT [BSC1 C-terminal 12 aa]
protein stability index: 0.682
--
POLYMER_SEQUENCE: NVDDAYSRVFGI [MPS2 C-terminal 12 aa]
protein stability index: 0.673
--
POLYMER_SEQUENCE: ANLRAYFGPGFT [BUD6 C-terminal 12 aa]
protein stability index: 0.691
--
POLYMER_SEQUENCE: TLNFEEARKEYV [YDR509W C-terminal 12 aa]
protein stability index: 0.728
--
POLYMER_SEQUENCE: FRTDEVYAAWRD [KAE1 C-terminal 12 aa]
protein stability index: 0.681
--
POLYMER_SEQUENCE: TYSTLINIDVSL [NIC96 C-terminal 12 aa]
protein stability index: 0.688
--
POLYMER_SEQUENCE: FEVMKFVNGLKV [RFX1 C-terminal 12 aa]
protein stability index: 0.587
--
POLYMER_SEQUENCE: PSLRTRSSYTEE [FLR1 C-terminal 12 aa]
protein stability index: 0.717
--
POLYMER_SEQUENCE: ADDDIFVNGFLR [YHL002C-A C-terminal 12 aa]
protein stability index: 0.7
--
POLYMER_SEQUENCE: RVVDLIEYVAKA [TDH1 C-terminal 12 aa]
protein stability index: 0.703
--
POLYMER_SEQUENCE: SGKFNGKKKSRR [FAF1 C-terminal 12 aa]
protein stability index: 0.666
--
POLYMER_SEQUENCE: EQLEQDDGRKGG [LSM12 C-terminal 12 aa]
protein stability index: 0.669
--
POLYMER_SEQUENCE: GEDTGPTVEEVD [SSA3 C-terminal 12 aa]
protein stability index: 0.684
--
POLYMER_SEQUENCE: ALLDPSDTLNFM [RDR1 C-terminal 12 aa]
protein stability index: 0.704
--
POLYMER_SEQUENCE: FLKNFTNDTFDN [BCH1 C-terminal 12 aa]
protein stability index: 0.746
--
POLYMER_SEQUENCE: PDYKSNTQILVL [YOL155W-A C-terminal 12 aa]
protein stability index: 0.584
--
POLYMER_SEQUENCE: PARESMLHKEIK [ADE12 C-terminal 12 aa]
protein stability index: 0.668
--
POLYMER_SEQUENCE: EDKEIVDGKVLK [TEF4 C-terminal 12 aa]
protein stability index: 0.674
--
POLYMER_SEQUENCE: LFYVMTMTKFLF [PHM6 C-terminal 12 aa]
protein stability index: 0.364
--
POLYMER_SEQUENCE: TIDFFDPVKLKR [YEL025C C-terminal 12 aa]
protein stability index: 0.755
--
POLYMER_SEQUENCE: CNNVLYIRELPN [SMX3 C-terminal 12 aa]
protein stability index: 0.68
--
POLYMER_SEQUENCE: EGWNSDNVYKLS [CYC2 C-terminal 12 aa]
protein stability index: 0.598
--
POLYMER_SEQUENCE: EYHQEFLHKHVR [CWC15 C-terminal 12 aa]
protein stability index: 0.662
--
POLYMER_SEQUENCE: DEEREDDNYVPQ [CBC2 C-terminal 12 aa]
protein stability index: 0.671
--
POLYMER_SEQUENCE: KPPKNKYKVVRR [SEC65 C-terminal 12 aa]
protein stability index: 0.681
--
POLYMER_SEQUENCE: GDLLSLKGEIMQ [ALK2 C-terminal 12 aa]
protein stability index: 0.691
--
POLYMER_SEQUENCE: VYTSKTRYRFAV [YHR210C C-terminal 12 aa]
protein stability index: 0.578
--
POLYMER_SEQUENCE: VAEKIPENETTH [ISW1 C-terminal 12 aa]
protein stability index: 0.679
--
POLYMER_SEQUENCE: VLNFFKRRSMRV [KIN4 C-terminal 12 aa]
protein stability index: 0.634
--
POLYMER_SEQUENCE: CFPDDIFEYAVE [GLG1 C-terminal 12 aa]
protein stability index: 0.76
--
POLYMER_SEQUENCE: GPDAPLSKMKYE [SCS7 C-terminal 12 aa]
protein stability index: 0.704
--
POLYMER_SEQUENCE: AKYALLEVLKVS [YOR102W C-terminal 12 aa]
protein stability index: 0.187
--
POLYMER_SEQUENCE: TDGPNEKWLPDY [SKS1 C-terminal 12 aa]
protein stability index: 0.712
--
POLYMER_SEQUENCE: LKSLSKYSVQNS [CTF3 C-terminal 12 aa]
protein stability index: 0.678
--
POLYMER_SEQUENCE: KSASSSPAPKDT [TRM10 C-terminal 12 aa]
protein stability index: 0.708
--
POLYMER_SEQUENCE: LTYNTSCQRRQK [YOR161W-A C-terminal 12 aa]
protein stability index: 0.717
--
POLYMER_SEQUENCE: KEKSESLQEEIN [YET3 C-terminal 12 aa]
protein stability index: 0.71
--
POLYMER_SEQUENCE: NDDSKDEDDIIP [MAL33 C-terminal 12 aa]
protein stability index: 0.731
--
POLYMER_SEQUENCE: NGSDNVTPGGRL [STE50 C-terminal 12 aa]
protein stability index: 0.685
--
POLYMER_SEQUENCE: LPEAPSSQPLQA [TIM17 C-terminal 12 aa]
protein stability index: 0.696
--
POLYMER_SEQUENCE: RRHYSNEDSSFL [APC9 C-terminal 12 aa]
protein stability index: 0.689
--
POLYMER_SEQUENCE: FVKVIDYTSNGW [PBY1 C-terminal 12 aa]
protein stability index: 0.685
--
POLYMER_SEQUENCE: ILKKNPDYREEE [RPN1 C-terminal 12 aa]
protein stability index: 0.703
--
POLYMER_SEQUENCE: SSYNSNVGHIKN [WHI3 C-terminal 12 aa]
protein stability index: 0.736
--
POLYMER_SEQUENCE: LKKQIFEKVQKE [MET4 C-terminal 12 aa]
protein stability index: 0.635
--
POLYMER_SEQUENCE: FVKDEIHKDILD [PEX21 C-terminal 12 aa]
protein stability index: 0.685
--
POLYMER_SEQUENCE: KTDPNEPANDYR [DLD1 C-terminal 12 aa]
protein stability index: 0.686
